The reported measurements were obtained from PubChem BioAssay (NCATS).

Molecular target: Cytochrome P450 3A4 (Homo sapiens)
Test: qHTS Assay for Activators of Cytochrome P450 3A4 (AID 885); note: nearly all actives have a fitted effect of over 65% in size
Conditions: recombinant CYP3A4, Luciferin-PPXE luminescence, 60 min; series mostly up to 57.1 µM
The source made the active and inactive calls. Calls come from the whole dose curve; as a rule, active = well fitted activation curve with a large enough effect; inconclusive = small, poorly fitted or top-dose-only effect; inactive = no such curve, though single readings can be large or run the other way.

[
  {
    "compound": "COC(=O)NC(/C=C/c1ccccc1)[C@]1(C(C)=O)CCCC1=O (some centres not stated)",
    "experimental.system": "Cytochrome P450 3A4 (Homo sapiens)",
    "activity change, positive = activation": "-41.6% [at 11.4 µM] (inactive)"
  },
  {
    "compound": "CCCCCCN(C(=O)CCCCCN1C(=O)NC(c2ccccc2-c2ccccc2)C(C(=O)OCc2ccccc2)=C1C)C(C(=O)NCCCC)c1ccc(OCC(=O)OC)c(C(=O)OC)c1 (configuration not stated)",
    "experimental.system": "Cytochrome P450 3A4 (Homo sapiens)",
    "activity change, positive = activation": "inactive"
  },
  {
    "compound": "CCC1=C2CC[C@H]3C(=O)NC(=O)[C@H]3[C@H]2[C@@]2(Cc3ccccc3)C(=NCC(=O)OC)OC(=O)N2C1=O",
    "experimental.system": "Cytochrome P450 3A4 (Homo sapiens)",
    "activity change, positive = activation": "inactive"
  },
  {
    "compound": "COC(=O)c1ccc(C(NC(=O)OCc2ccccc2)/C(=C/[C@@H](C)C(=O)N(C)Cc2ccccc2)c2cccnc2)cc1 (some centres not stated)",
    "experimental.system": "Cytochrome P450 3A4 (Homo sapiens)",
    "activity change, positive = activation": "inactive"
  },
  {
    "compound": "CC(=O)N1[C@H](Cc2ccccc2)C=C[C@]1(C)C(=O)NCc1ccc(C)o1",
    "experimental.system": "Cytochrome P450 3A4 (Homo sapiens)",
    "activity change, positive = activation": "inactive"
  },
  {
    "compound": "O=C1[C@@H]2[C@H]3[C@H](O)[C@H](O)C/C(=N/OC[C@@H](O)COCc4ccco4)[C@H]3CC[C@H]2C(=O)N1c1ccc(F)cc1F",
    "experimental.system": "Cytochrome P450 3A4 (Homo sapiens)",
    "activity change, positive = activation": "-44.4% [at 11.4 µM] (inactive)"
  },
  {
    "compound": "COC(=O)c1ccc(C(NC(=O)OCc2ccccc2)/C(=C/[C@@H](C)C(=O)Nc2ccc(OC)cc2)c2cccnc2)cc1 (some centres not stated)",
    "experimental.system": "Cytochrome P450 3A4 (Homo sapiens)",
    "activity change, positive = activation": "inactive"
  }
]

###

Biological target: Cytochrome P450 3A4 (Homo sapiens) (UniProt P08684)
Sequence (P08684 whole entry, looked up): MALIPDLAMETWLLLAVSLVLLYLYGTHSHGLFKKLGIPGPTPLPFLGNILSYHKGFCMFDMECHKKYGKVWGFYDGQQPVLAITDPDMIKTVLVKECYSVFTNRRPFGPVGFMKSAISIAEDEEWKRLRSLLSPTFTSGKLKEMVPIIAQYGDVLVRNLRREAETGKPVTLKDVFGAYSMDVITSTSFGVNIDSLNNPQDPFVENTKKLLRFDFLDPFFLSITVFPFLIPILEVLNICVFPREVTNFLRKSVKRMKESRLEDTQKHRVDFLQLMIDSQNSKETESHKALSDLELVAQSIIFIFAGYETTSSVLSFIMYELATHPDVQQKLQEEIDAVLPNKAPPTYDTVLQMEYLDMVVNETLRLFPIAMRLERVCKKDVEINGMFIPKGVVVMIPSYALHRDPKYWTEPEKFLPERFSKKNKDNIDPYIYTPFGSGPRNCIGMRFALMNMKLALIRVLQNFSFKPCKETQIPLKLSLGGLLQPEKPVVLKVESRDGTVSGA
Assay: qHTS Assay for Activators of Cytochrome P450 3A4 (AID 885); note: nearly all actives have a fitted effect of over 65% in size
Settings: recombinant CYP3A4, Luciferin-PPXE luminescence, 60 min; series mostly up to 57.1 µM
Activity calls are given as the source filed them. The call rests on the fitted dose curve; in most records, active means well fitted activation curve with a large enough effect; inconclusive means small, poorly fitted or top-dose-only effect; inactive means no such curve, though single readings can be large or run the other way.
test.readout: activity change, positive = activation

[
  {
    "molecule": "COC(=O)C/C=C\\[C@@H](C)[C@@H](/C=N\\OC[C@@H](O)COCc1ccco1)NS(=O)(=O)c1ccc(C)cc1",
    "result": "-107% [at 11.4 µM] (inactive)"
  },
  {
    "molecule": "CC(=O)OCC1OC(C#Cc2ccccc2Cl)C=CC1OC(C)=O (centres undefined)",
    "result": "-76.5% [at 11.4 µM] (inactive)"
  },
  {
    "molecule": "C=CCOC(=O)C(C(C)=O)C(NC(=O)OC)c1ccccc1 (centres undefined)",
    "result": "-86.9% [at 11.4 µM] (inactive)"
  },
  {
    "molecule": "COC(=O)[C@@H]1C[C@@H]2CC[C@@H](O)C[C@@H]2N1Cc1ccc(C(F)(F)F)cc1",
    "result": "inactive"
  },
  {
    "molecule": "N#Cc1ccc(C23CC4(C2)[C@H](CN(CC2CCCCC2)[C@@H]4c2ccccc2)C3c2ccc(Cl)nc2)cc1 (some centres undefined)",
    "result": "inactive"
  },
  {
    "molecule": "COC(=O)N1[C@H](C)C=C[C@]1(Cc1ccccc1)C(=O)NCc1ccc(C)o1",
    "result": "inactive"
  },
  {
    "molecule": "CC(C)C(=O)N[C@@H]1CCCN1C(=O)/C=C\\c1ccccc1",
    "result": "-30.2% [at 11.4 µM] (inactive)"
  },
  {
    "molecule": "CO[C@H]1OC[C@@]2(C)[C@@H]3C4=C(CN2C(=O)OC(C)(C)C)[C@H](C)[C@H](CO)[C@H](CO)[C@H]4CC[C@H]13",
    "result": "inactive"
  },
  {
    "molecule": "CCC1=C(OC(=O)N(CC)CC)N2C(=O)OC(=NCc3ccccc3)[C@]2(C)[C@H]2C1=CC[C@H]1C(=O)N(CC)C(=O)[C@H]12",
    "result": "inactive"
  }
]

###

Tested on: CP305
Test: qHTS profiling for inhibitors of Plasmodium falciparum proliferation (AID 504749); note: nearly all actives have a fitted effect of over 60% in size
Details: P. falciparum in erythrocytes, SYBR Green DNA, 72 h; series mostly up to 28.7 µM
Results filed as inconclusive are left out. Active and inactive are the calls of the source. The call rests on the fitted dose curve; in most records, active means well fitted inhibition curve with a large enough effect; inconclusive means small, poorly fitted or top-dose-only effect; inactive means flat fitted curve, though single readings scatter. Square brackets hold non-standard residues; d marks the D form. Peptide text beside a SMILES is read from it. Orn = NCCC[CH](N)C(=O)O
Labels: 1.0 (active), 0.0 (inactive)

[
  {
    "compound": "CC(C)CC1NC(=O)C(CCCN)NC(=O)C(C(C)C)NC(=O)C2CCCN2C(=O)C(Cc2ccccc2)NC(=O)C(CC(C)C)NC(=O)C(CCCN)NC(=O)C(C(C)C)NC(=O)C2CCCN2C(=O)C(Cc2ccccc2)NC1=O (stereo not drawn) (cyclo(FPV[Orn]LFPV[Orn]L); configuration not given here)",
    "class.assignment": 1.0
  },
  {
    "compound": "O=C1/C(=C\\c2cccs2)CCC/C1=C/c1cccs1",
    "class.assignment": 0.0
  },
  {
    "compound": "O=C(O)c1ccccc1-c1c2cc(Br)c(=O)c(Br)c-2oc2c(Br)c(O)c(Br)cc12",
    "class.assignment": 0.0
  }
]

###

Assay: qHTS for Inhibitors of Plasmodium falciparum (7G8) proliferation (AID 504316); note: nearly all actives have a fitted effect of over 65% in size; note: potency is the fitted concentration of half-maximal effect
Settings: P. falciparum 7G8 in erythrocytes, SYBR Green DNA, 72 h; series mostly up to 6.7 µM
Records with an inconclusive call do not appear. Activity calls are given as the source filed them. The call rests on the fitted dose curve; in most records, active means well fitted inhibition curve with a large enough effect; inconclusive means small, poorly fitted or top-dose-only effect; inactive means flat fitted curve, though single readings scatter.
test.readout: Potency

[
  {
    "compound": "O=C(NS(=O)(=O)c1ccc(F)cc1)O[C@@H]1C(=O)c2cc(Br)ccc2O[C@H]1c1ccc2c(c1)OCO2",
    "test.readout": "Potency",
    "result": "inactive"
  },
  {
    "compound": "COC(=O)[C@@H]1CC[C@H](C)[C@@H](c2ccc(C)cc2)N1C(=O)c1ccc(C=NO[C@@H](C)c2cc(-c3c(C)cc(C)cc3C)no2)cc1",
    "test.readout": "Potency",
    "result": "1690 nM (active)"
  },
  {
    "compound": "CC(C)CN1C=C2C(=O)C(C)(OC(=O)CCc3ccccc3)C(=O)C=C2C=C1c1ccc(C#N)cc1 (centres undefined)",
    "test.readout": "Potency",
    "result": "inactive"
  },
  {
    "compound": "CCOC(=O)CN1C(=O)N[C@@H](CCc2ccccc2)[C@H](C(C)=O)[C@H]1C",
    "test.readout": "Potency",
    "result": "inactive"
  },
  {
    "compound": "COC(=O)c1ccccc1S(=O)(=O)N1CCc2nc(-c3ccccc3)c3c(c2C1)CO[C@@H](C)C3",
    "test.readout": "Potency",
    "result": "inactive"
  },
  {
    "compound": "CCOC(=O)OC[C@H]1O[C@H](C#Cc2ccccc2)C=C[C@H]1OC(=O)OCC",
    "test.readout": "Potency",
    "result": "1510 nM (active)"
  },
  {
    "compound": "COC(=O)CCC(=O)OC1(C)C(=O)C=C2C=C(C3CC3)N(CCN3CCOCC3)C=C2C1=O (centres undefined)",
    "test.readout": "Potency",
    "result": "inactive"
  },
  {
    "compound": "COC(=O)N[C@@H](c1cccc(C)c1)C(C(C)=O)C(=O)OC (some centres undefined)",
    "test.readout": "Potency",
    "result": "inactive"
  },
  {
    "compound": "C=C(C)C(=O)c1ccc2c(c1)OCO2",
    "test.readout": "Potency",
    "result": "inactive"
  }
]

###

Target: Retinoic acid receptor RXR-alpha (Homo sapiens) (UniProt P19793)
Sequence (P19793 whole entry, looked up): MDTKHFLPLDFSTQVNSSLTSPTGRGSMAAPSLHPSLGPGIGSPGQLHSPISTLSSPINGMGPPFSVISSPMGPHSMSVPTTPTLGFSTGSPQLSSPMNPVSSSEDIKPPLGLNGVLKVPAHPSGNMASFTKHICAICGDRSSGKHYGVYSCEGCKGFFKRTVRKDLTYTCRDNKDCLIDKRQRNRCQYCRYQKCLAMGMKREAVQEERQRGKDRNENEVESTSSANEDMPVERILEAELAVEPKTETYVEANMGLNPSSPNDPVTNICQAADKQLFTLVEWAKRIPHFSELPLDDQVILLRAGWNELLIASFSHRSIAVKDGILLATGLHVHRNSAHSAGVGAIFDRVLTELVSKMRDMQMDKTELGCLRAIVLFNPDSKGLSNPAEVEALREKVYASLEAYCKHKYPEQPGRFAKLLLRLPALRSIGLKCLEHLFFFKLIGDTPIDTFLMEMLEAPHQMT
Test: qHTS assay for small molecule antagonists of retinoid X receptor alpha signaling (AID 588546);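 note: cells stimulated with 9-cis-retinoic acid as agonist; % is set by controls: 0 for no effect and ±100 for the full control effect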
Details: HEK293T RXRa-UAS-bla, beta-lactamase ratio, antagonist mode
Source text: NIH Chemical Genomics Center [NCGC] U.S. Environmental Protection Agency [EPA] National Institutes of Environmental Health Sciences [NIEHS] National Toxicology Program [NTP] NCGC Assay Overview The Retinoid X receptor (RXR), a nuclear hormone receptor is expressed in liver, spleen, placenta, epidermis, central nervous system. […]
Inconclusive results are not listed.
test.readout: max response (%)

[
  {
    "molecule": "Cn1c(=O)[nH]c(=O)n(C2CCC(O)CC2)c1=O (configuration not stated)",
    "test.readout": "max response",
    "numeric.value": -0.444
  },
  {
    "molecule": "O=C(Cl)c1cccc(C(=O)Cl)c1",
    "test.readout": "max response",
    "numeric.value": -13.1
  },
  {
    "molecule": "CC/C=C\\CCOC(=O)c1ccccc1O",
    "test.readout": "max response",
    "numeric.value": 0.792
  },
  {
    "molecule": "C=CCCCCCCCCCC",
    "test.readout": "max response",
    "numeric.value": 2.09
  },
  {
    "molecule": "CCCCNS(=O)(=O)c1ccccc1",
    "test.readout": "max response",
    "numeric.value": 5.33
  },
  {
    "molecule": "O=S(=O)(O)c1ccc(N=Nc2c(O)ccc3cc(S(=O)(=O)O)ccc23)cc1",
    "test.readout": "max response",
    "numeric.value": -6.14
  },
  {
    "molecule": "CCCCCc1ccc(N)cc1",
    "test.readout": "max response",
    "numeric.value": -25
  }
]
